Assignment: determine reported Ki for the given compounds.
Your answer should be a plain number; it is taken to be in nM.

Query: I'm curious: which Ki was measured for `C[C@H]1CCCN1[C@H]1CCN(c2ccc3c(c2)CN(C(=O)C2CCOCC2)CC3)C1` tested on UniProt:Q9QYN8?
Response: 0.91

Query: # returns recorded Ki (system: UniProt:Q9QYN8) for C[C@H]1CCCN1[C@H]1CCN(c2ccc3c(c2)CCN(C2CCOCC2)C3)C1.O=C(O)C(F)(F)F [Example 4, hydrochloride]
Sequence (Q9QYN8 whole entry): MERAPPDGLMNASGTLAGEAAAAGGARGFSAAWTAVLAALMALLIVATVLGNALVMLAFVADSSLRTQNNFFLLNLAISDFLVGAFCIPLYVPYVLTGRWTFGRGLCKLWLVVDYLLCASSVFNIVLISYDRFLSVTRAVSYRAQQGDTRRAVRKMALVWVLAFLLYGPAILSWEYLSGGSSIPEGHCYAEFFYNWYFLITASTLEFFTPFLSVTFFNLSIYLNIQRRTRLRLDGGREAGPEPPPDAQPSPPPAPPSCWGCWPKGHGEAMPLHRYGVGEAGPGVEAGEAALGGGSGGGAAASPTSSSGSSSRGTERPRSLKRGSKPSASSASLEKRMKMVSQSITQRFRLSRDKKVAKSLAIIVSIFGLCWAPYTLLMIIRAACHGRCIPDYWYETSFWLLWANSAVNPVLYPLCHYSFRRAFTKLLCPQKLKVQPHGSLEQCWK
Response: 0.05

Query: What reported Ki corresponds to `C[C@H]1CCCN1[C@H]1CCN(c2ccc3c(c2)CCN(C(=O)C2CCCCC2)C3)C1` on UniProt:Q9QYN8?
Response: 0.24

Query: Fill in the recorded Ki for this compound, with UniProt:Q9QYN8 as test system: `C[C@H]1CCCN1[C@H]1CCN(c2ccc3c(c2)CCN(C2CCOCC2)C3=O)C1`
Response: 3.6

Query: Test system UniProt:Q9QYN8; read-out Ki; what value for `C[C@H]1CCCN1[C@H]1CCN(c2ccc3c(c2)CCN(C(=O)C2CCCC2)C3)C1` ?
Response: 0.51

Query: Recorded Ki for `CCOC(=O)N1CCC(N2CCc3cc(N4CC[C@H](N5CCC[C@@H]5C)C4)ccc3C2)CC1` with UniProt:Q9QYN8, please?
Response: 0.97

Query: GET /values?readout=Ki&system=UniProt:Q9QYN8&item= `C[C@H]1CCCN1[C@H]1CCN(c2ccc3c(c2)CCN(CC2CCCC2)C3)C1`
Response: 0.19

Query: Please provide the recorded Ki for `C[C@H]1CCCN1[C@H]1CCN(c2ccc3c(c2)CCN(C(=O)c2cc4c(ccn4CCOC[Si](C)(C)C)s2)C3)C1` , tested on UniProt:Q9QYN8.
Response: 140

Query: Give Ki (UniProt:Q9QYN8) of the following compound: `CC(C)N1CCc2cc(N3CC[C@H](N4CCC[C@@H]4C)C3)ccc2C1`
Response: 0.91

Query: Find Ki (UniProt:Q9QYN8) for the entry C[C@H]1CCCN1[C@H]1CCN(c2ccc3c(c2)CCN(C2CCN(C(=O)OC(C)(C)C)C2)C3)C1 (stereo partly shown)
Response: 0.74

Query: // fetch UniProt:Q9QYN8 Ki for `COc1ccc(C(=O)N2CCc3cc(N4CC[C@H](N5CCC[C@@H]5C)C4)ccc3C2)cc1`
Response: 6.2

Query: Provide value of Ki for this record tested with UniProt:Q9QYN8: `C[C@H]1CCCN1[C@H]1CCN(c2ccc3c(c2)CCN(C(=O)Nc2ccc(-c4ccccc4)cc2)C3)C1`
Response: 330

Query: Quick check: Ki on UniProt:Q9QYN8, item `C[C@H]1CCCN1[C@H]1CCN(c2ccc3c(c2)CCN(Cc2ccc4c(c2)OCCO4)C3)C1` ?
Response: 6.9

----------
So I've got a bunch of compounds here, and I need their GTPγS-35 ASSAY % Inverse Agonism values.
- TARGET_OR_TEST_SYSTEM: rhesus H3 (Macaca mulatta, UniProt Q865E1)
- Construct: 445 amino acid H3 receptor; expressed in transfected cells; host or cells: Flp-In T-REx 293 Cell Line (Invitrogen), pcDNA5/FRT/TO, induced with tetracycline
- Sequence (Q865E1 1-445): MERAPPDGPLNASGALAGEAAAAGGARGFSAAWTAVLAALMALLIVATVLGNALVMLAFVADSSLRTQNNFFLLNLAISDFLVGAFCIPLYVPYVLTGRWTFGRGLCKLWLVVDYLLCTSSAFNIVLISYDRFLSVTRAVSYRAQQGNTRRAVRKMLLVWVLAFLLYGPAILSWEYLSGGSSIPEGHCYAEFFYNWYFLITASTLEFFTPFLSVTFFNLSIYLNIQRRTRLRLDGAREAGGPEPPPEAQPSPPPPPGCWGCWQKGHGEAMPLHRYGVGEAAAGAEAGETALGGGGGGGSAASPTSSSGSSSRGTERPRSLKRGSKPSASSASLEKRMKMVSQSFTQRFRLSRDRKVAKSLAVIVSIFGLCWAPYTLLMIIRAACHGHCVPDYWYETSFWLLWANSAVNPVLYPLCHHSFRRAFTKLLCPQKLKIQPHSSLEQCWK
- ASSAY: GTPγS radioligand binding assay, rhesus H3 constitutive functional activity in cell membranes
- Format: biochemical, rhesus monkey (Macacca Mulatta)
- ASSAY_CONTEXT: relative to basal levels
Reply numerically in %, unit not repeated.

Query: Field request: GTPγS-35 ASSAY % Inverse Agonism | item: `C[C@H]1CCCN1[C@H]1CCN(c2ccc3c(c2)CCN(C(=O)Nc2ccc(-c4ccccc4)cc2)C3)C1`
Response: −16.1

Query: Data request, read-out GTPγS-35 ASSAY % Inverse Agonism, for C[C@H]1CCCN1[C@H]1CCN(c2ccc3c(c2)CCN(C2CCN(C(=O)OC(C)(C)C)C2)C3)C1 (stereo partly shown)
Response: −24.9

Query: Could you share which GTPγS-35 ASSAY % Inverse Agonism value was measured for `C[C@H]1CCCN1[C@H]1CCN(c2ccc3c(c2)CCN(C(=O)C2CCCCC2)C3)C1` ?
Response: −10.7

Query: I have this compound here, `COc1cccc(S(=O)(=O)N2CCc3cc(N4CC[C@H](N5CCC[C@@H]5C)C4)ccc3C2)c1.O=C(O)C(F)(F)F` , and I need its recorded GTPγS-35 ASSAY % Inverse Agonism.
Response: −27.7
